B1: ESRRG (parent)
chain: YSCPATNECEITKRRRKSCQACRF

# Variants of: B1
# protocol_description: protein stability index of a GFP-peptide fusion (GPS, HEK-293T) (PSI 1-6); higher = more stable;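 note: lentivirally expressed fusions sorted by FACS into six bins by GFP to DsRed ratio, PSI derived from sequencing read proportions per bin multiplied by bin number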
# protocol_conditions: c terminus: a fixed tail appended
Label condition met when protein stability index is at or above 3; otherwise label condition not met.

[
  {
    "variant_key": "A21E",
    "class": "condition met"
  },
  {
    "variant_key": "A21W",
    "class": "condition not met"
  },
  {
    "variant_key": "S2K",
    "class": "condition met"
  },
  {
    "variant_key": "R15C",
    "class": "condition met"
  },
  {
    "variant_key": "I11C",
    "class": "condition met"
  },
  {
    "variant_key": "T6K",
    "class": "condition met"
  },
  {
    "variant_key": "Q20H",
    "class": "condition not met"
  },
  {
    "variant_key": "E10I",
    "class": "condition not met"
  },
  {
    "variant_key": "R16C",
    "class": "condition met"
  },
  {
    "variant_key": "E10R",
    "class": "condition met"
  },
  {
    "variant_key": "T12W",
    "class": "condition not met"
  },
  {
    "variant_key": "A5K",
    "class": "condition met"
  },
  {
    "variant_key": "E10N",
    "class": "condition met"
  },
  {
    "variant_key": "K13W",
    "class": "condition not met"
  },
  {
    "variant_key": "N7H",
    "class": "condition met"
  },
  {
    "variant_key": "P4Q",
    "class": "condition met"
  },
  {
    "variant_key": "C9H",
    "class": "condition met"
  },
  {
    "variant_key": "K17I",
    "class": "condition met"
  },
  {
    "variant_key": "C19S",
    "class": "condition met"
  },
  {
    "variant_key": "Y1W",
    "class": "condition met"
  }
]

All figures here come from the supplement of paper PMC10567573.
